- SUBJECT OF TEST: alkaline phosphatase (Bos taurus, UniProt P19111)
- Sequence (P19111 20-506 limits assumed): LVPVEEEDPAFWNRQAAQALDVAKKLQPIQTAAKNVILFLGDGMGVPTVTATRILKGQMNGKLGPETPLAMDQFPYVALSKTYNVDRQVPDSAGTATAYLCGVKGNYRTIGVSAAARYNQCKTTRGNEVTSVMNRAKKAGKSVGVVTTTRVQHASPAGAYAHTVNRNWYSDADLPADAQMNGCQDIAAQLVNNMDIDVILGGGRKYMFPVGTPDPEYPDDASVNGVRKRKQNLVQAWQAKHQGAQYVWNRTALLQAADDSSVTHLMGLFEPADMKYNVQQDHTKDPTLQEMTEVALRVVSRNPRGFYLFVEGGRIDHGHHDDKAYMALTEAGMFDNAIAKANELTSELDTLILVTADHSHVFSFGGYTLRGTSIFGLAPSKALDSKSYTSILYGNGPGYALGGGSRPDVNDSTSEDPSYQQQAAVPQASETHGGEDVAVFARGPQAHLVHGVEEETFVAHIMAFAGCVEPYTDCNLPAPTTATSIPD
- EXPERIMENTAL PROTOCOL: Detection limits for alkaline phosphatase, Berthold LB952T (Example XXII)
- Format: biochemical
- SETTINGS: ENHANCER 1; 20 MIN; twice background
READOUT LABEL: Detection limit for alkaline phosphatase (femtomoles/liter)
Provide the reading as a plain figure in femtomoles/liter.

>  <COMPOUND>
COC1(c2cccc(OP(=O)(O)O)c2)OOC12C1CC3CC2CC(Br)(C3)C1 (stereo not shown) [Br-AMPPD]

>  <OBSERVED VALUE>
0.5

$$$$

Enquiry: Field request: Detection limit for alkaline phosphatase | item: COC1(c2cccc(OP(=O)(O)O)c2)OOC12C1CC3CC2CC(Cl)(C3)C1 (stereo not shown) [Cl-AMPPD]
Return: 0.6

Enquiry: Field request: Detection limit for alkaline phosphatase | item: COC1(c2cccc(OP(=O)(O)O)c2)OOC12C1CC3CC(C1)CC2C3 (stereo not shown) [AMPPD, reference compound]
Return: 1.4

Enquiry: Field request: Detection limit for alkaline phosphatase | item: COC1(c2cccc(OP(=O)(O)O)c2)OOC12C1CC3CC2CC(O)(C3)C1 (single isomer, unassigned) [HO-AMPPD]
Return: 0.8

Origin of measurements: patent US5326882A
